The entries below are paired with their reported %ILS.
# System: S180 ascites
# Experiment: Screening for anti-tumor activity against S180 ascites (S180a) in mice
# Assay type: in vivo, female CFW Swiss mice
# Study Conditions: Dose 40 mg/kg, medium H2O, injected day 1, S180a in mice, upper limit 100%
Note: unit % is implicit; provide only the numeric part.

Q: Answer with reported %ILS of N.N.Nc1cc[nH]c(=O)n1.[Cl-].[Cl][Pt+]
Ans: 58

Q: Find the measured %ILS of Cc1cccc(O)[n+]1[Pt-2]([NH3+])([NH3+])[Cl].[Cl-] (stereo not shown) and report it.
Ans: 12

Q: Provide one value: measured %ILS of Cc1cc[n+]([Pt-2]([NH3+])([NH3+])[Cl])cc1.[Cl-] (stereo not shown)
Ans: 83

Q: Complete the entry with %ILS for [Cl-].[NH3+][Pt-2]([NH3+])([Cl])[n+]1cccc(O)c1 (stereo not shown)
Ans: 54

Q: Look up and report measured %ILS for this entry: [Cl-].[NH3+][Pt-2]([NH3+])([Cl])[n+]1ccc(Cl)cc1 (stereo not shown)
Ans: 77

Q: Please give the documented %ILS of [Cl-].[Cl][Pt-2]1([n+]2ccccc2)[NH2+]C2CCCCC2[NH2+]1 (stereo not shown)
Ans: 6

Q: Give me measured %ILS, please, for this molecule: Cc1ccc(O)c[n+]1[Pt-2]([NH3+])([NH3+])[Cl].[Cl-] (stereo not shown)
Ans: 70
